Property: pKd; scope: individual binders
- System: Human His-tagged RBP4 (residues 19-201), soluble (human, UniProt P02753 19-201)
- Assay Comment: yeast display, + A1120; mean ± S.D., n=3
For clarity, pKd is expressed as the negative log10 of concentration in mol/L.

>>> reported("RF2, FN3-based lipocalin-fold binding interaction partner, displayed on the surface of yeast (designed binder, not shown: Yeast-display carrier of the pCTCON2 construct (Aga2p anchor, HA tag, linker, c-myc tag)) VSDVPRDLEVVAATPTSLLISWYYPNASHAGYYRITYGETGGNSPVQEFTVPFSIRYTIATISGLKPGVDYTITVYAVTDYAYYYRLSEPISINYRTEIDKPSQ")
7.19
>>> reported("RS3, rcSso7d-based lipocalin-fold binding interaction partner, displayed on the surface of yeast (designed binder, not shown: Yeast display carrier of pCTCON2 (Aga2p, HA tag, linker, C-terminal c-myc tag)) ATVKLTYQGEEKQVDISKIKRVARYGQNIYFSYDEGGGAYDYGAVSEKDAPKELLQMLEKQ")
7.89

Could you now consider this next binder?
Please give the measured pKd for this binder: RS5, rcSso7d-based lipocalin-fold binding interaction partner, displayed on the surface of yeast (designed binder, not shown: Yeast-display carrier of the pCTCON2 construct (Aga2p anchor, HA tag, linker, c-myc tag)) ATVKFTYQGEEKQVDISKIKRVARYGQGIYFDYGEGGGAWGYGSVSEEDAPKELLQMLEKQ
7.10
